Parameter: Kd. Scope: all listed entries.
- Assayed Target: T1, recombinant human TIGIT (human, UniProt Q495A1 22-141, limits assumed)
- T1 construct: recombinant human TIGIT used in Carterra SPR; also called hTIGIT
- T1 sequence (looked up): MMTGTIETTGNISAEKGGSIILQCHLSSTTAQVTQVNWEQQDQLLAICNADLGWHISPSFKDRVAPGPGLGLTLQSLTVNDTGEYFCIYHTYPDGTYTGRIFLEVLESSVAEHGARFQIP
- Experiment: SPR Carterra, average
- Protocol: Binding affinities of VHH-Fc proteins to recombinant human TIGIT were measured by SPR using a Carterra instrument (Table 10A). […] Average values reported from measurements from 1-2 samples.
Give the value in µM but do not write µM after it.

A selection of reference data follows.
Binder: TIGIT-SC45 (Fc fusion, VHH-Fc fusion in assay) VHH: EVQLVESGGGLVQPGGSLRLSCAASGGTFNAMGWFRQAPGKEREWVASVLRGGYTWYADSVKGRFTISADNSKNTAYLQMNSLKPEDTAVYYCAKDGGSSGTYQNWWGQGTLVTVSS
Kd (µM): 0.103

Binder: TIGIT-SC145 (Fc fusion, VHH-Fc fusion in assay) VHH: EVQLVESGGGLVQPGGSLRLSCAASGNTFSGGFTLGYYVMGWFRQAPGKEREFVAAISRSGTLKAYADGVKGRFTISADNSKNTAYLQMNSLKPEDTAVYYCARVEAYGDPLGYWGQGTLVTVSS
Kd (µM): 0.0479

Binder: TIGIT-SC7 (Fc fusion, VHH-Fc fusion in assay) VHH: EVQLVESGGGLVQPGGSLRLSCAASGRSFSMYVMGWFRQAPGKEREGVSFISGSDGSTLYADSVKGRFTISADNSKNTAYLQMNSLKPEDTAVYYCARGSIAARPVFFDYWGQGTLVTVSS
Kd (µM): 0.0121

Binder: TIGIT-SC209 (Fc fusion, VHH-Fc fusion in assay) VHH: EVQLVESGGGLVQPGGSLRLSCAASGFLFNSYWMGWFRQAPGKEREFVAAIWRSGTLKAYADSVKGRFTISADNSKNTEYLQMNSLKPEDTAVYYCARDDYGDYRIYFQHWGQGTLVTVSS
Kd (µM): 0.0414

Turning now to a further binder:
Give its Kd value. Item: TIGIT-SC75 (Fc fusion, VHH-Fc fusion in assay) VHH: EVQLVESGGGLVQPGGSLRLSCAASGFIGNYHAMGWFRQAPGKEREFVAAIRWSDGSSYYADSVKGRFTISADNSKNTAYLQMNSLKPEDTAVYYCAKWSYYGSGLYGMDVWGQGTLVTVSS
0.00744

The measured values listed here are drawn from patent US20260184782A1.
